// values below are reported pKd
ASSAY_SYSTEM: T1, DFNB31_1, Q9P202
T1 sequence (Q9P202 135-233, limits assumed, looked up): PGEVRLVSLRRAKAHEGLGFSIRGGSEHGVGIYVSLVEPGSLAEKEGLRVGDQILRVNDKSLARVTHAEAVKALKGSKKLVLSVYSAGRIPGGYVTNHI
EXPERIMENT: holdup assay
Parameters: key: below the threshold = too weak to quantify, mostly under pKd 3.1 to 4
CONDITION_SET: plain residues with an end cap or a label only (N-terminal biotin on a linker: ttds)
// return a plain number; no unit text

[
  {
    "BINDER": "RLPKIKETTV [FRMPD4, Q14CM0]",
    "pKd": 3.96
  },
  {
    "BINDER": "KKYVDAETSL [SLC4A7, Q9Y6M7]",
    "pKd": 3.98
  },
  {
    "BINDER": "DKDPHSETAL [TMIGD1, Q6UXZ0]",
    "pKd": 3.98
  },
  {
    "BINDER": "EMDRRPATVV [PLCB4, Q15147]",
    "pKd": 3.53
  },
  {
    "BINDER": "RHTTSTETAV [HPV30-E6, P36809]",
    "pKd": 4.27
  }
]

Reported pKd for NDPAWDETNL [ARHGEF7, Q14155;Q14155-1] : what is it?
4.07

Reported pKd for PVRVCEETSL [OTULIN, Q96BN8] : what is it?
4.42

Reported pKd for EVVHTPETSV [SLC16A3, O15427] : what is it?
3.86

Reported pKd for SSLQSLETSV [ATP2B4, P23634] : what is it?
4.17
